The measurements presented in this section are drawn from patent US20240336686A1.

# tested.target: Human SIRPα v1 (human) (UniProt P78324)
# Sequence (P78324 31-370): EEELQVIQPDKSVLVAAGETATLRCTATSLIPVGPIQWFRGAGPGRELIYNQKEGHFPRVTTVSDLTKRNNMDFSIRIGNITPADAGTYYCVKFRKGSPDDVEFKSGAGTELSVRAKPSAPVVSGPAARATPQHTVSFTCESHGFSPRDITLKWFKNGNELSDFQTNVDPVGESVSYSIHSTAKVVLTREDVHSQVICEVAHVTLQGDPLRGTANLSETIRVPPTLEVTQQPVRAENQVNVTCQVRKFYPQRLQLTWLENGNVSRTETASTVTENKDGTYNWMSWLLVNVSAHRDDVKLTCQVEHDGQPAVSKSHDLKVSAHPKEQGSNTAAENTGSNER
# protocol.notes: SPR (Biacore), 1:1 binding model

binder: Humanized anti-SIRPα antibody hu025.023 (antibody, V domains shown) VH: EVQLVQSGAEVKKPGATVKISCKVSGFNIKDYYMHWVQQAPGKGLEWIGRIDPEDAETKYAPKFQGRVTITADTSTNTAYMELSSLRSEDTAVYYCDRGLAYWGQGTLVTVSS VL: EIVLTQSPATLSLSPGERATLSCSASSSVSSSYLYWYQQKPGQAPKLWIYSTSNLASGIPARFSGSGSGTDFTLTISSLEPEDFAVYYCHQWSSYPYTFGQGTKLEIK
unit: nM
Kd: 2.67
--
binder: Humanized anti-SIRPα antibody hu025.059 (antibody, V domains shown) VH: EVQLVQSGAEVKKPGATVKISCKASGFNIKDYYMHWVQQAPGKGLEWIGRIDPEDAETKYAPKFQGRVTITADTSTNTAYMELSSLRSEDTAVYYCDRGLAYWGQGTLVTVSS VL: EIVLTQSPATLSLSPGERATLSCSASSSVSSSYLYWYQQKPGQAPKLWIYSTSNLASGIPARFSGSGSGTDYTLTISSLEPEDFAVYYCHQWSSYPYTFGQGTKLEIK
unit: nM
Kd: 2.29
--
binder: Humanized anti-SIRPα antibody hu025.021 (antibody, V domains shown) VH: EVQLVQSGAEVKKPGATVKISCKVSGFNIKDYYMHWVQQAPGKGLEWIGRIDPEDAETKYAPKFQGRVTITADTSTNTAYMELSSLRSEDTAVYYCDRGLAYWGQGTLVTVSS VL: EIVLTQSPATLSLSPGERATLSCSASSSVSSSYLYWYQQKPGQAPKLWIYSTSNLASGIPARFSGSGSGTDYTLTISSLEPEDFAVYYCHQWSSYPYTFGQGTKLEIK
unit: nM
Kd: 3.05
--
binder: Humanized anti-SIRPα antibody hu025.060 (antibody, V domains shown) VH: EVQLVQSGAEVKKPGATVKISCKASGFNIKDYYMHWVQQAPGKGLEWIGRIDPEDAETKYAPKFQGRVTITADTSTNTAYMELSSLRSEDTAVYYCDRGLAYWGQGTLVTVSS VL: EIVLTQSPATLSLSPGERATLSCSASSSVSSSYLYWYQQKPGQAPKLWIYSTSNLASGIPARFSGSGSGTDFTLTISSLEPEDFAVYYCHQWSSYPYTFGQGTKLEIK
unit: nM
Kd: 1.99
